assay-target: T1, human CD73 expressed on the surface of cells (human, UniProt P21589 27-549)
T1 sequence: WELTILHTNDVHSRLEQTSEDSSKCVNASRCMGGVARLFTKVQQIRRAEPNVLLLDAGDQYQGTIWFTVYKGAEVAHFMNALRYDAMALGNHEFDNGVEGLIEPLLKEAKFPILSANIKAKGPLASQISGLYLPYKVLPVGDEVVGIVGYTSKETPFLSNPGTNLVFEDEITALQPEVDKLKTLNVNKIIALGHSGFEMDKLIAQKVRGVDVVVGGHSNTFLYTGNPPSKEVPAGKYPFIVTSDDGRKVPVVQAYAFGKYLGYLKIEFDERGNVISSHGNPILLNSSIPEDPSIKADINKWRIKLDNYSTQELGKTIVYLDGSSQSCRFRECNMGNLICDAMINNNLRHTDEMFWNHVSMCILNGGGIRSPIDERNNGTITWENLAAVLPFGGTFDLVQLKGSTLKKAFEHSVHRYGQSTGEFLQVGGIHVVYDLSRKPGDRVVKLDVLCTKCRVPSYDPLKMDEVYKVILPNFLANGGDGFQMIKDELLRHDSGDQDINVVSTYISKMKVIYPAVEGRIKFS
assay-details: cell-based or functional assay
metric-name: IC50 (nM), cell-based CD73 activity assay (A375 cells)

| binder | unit-string | reported-measurement |
| --- | --- | --- |
| 39G8-H3L3 (antibody, V domains shown) VH: QVQLVQSGAEVKKPGASVKVSCKASGYTFTSYWMHWVRQAPGQGLEWIGEIDPSGGYTNYNQKFQGRSTLTVDKSISTAYMELSRLRSDDTAVYYCARNYYYGSSGTMDYWGQGTLVTVSS VL: DIVMTQSPDSLAVSLGERATMSCKSSQSLLNSSNQKNYLAWYQQKPGQPPKLLVYFASTRESGVPDRFSGSGSGTDFTLTISSLQAEDVAVYFCQQHYSTPYTFGGGTKVEIK | nM | 56.1 |
| 60A9-H5L3 (antibody, V domains shown) VH: EVQLVESGGGLVQPGQSLKLSCKASGYAFSSYWMNWVKQRPGKGLEWIGQIYPGDGDTYYSGKFKGRATLSADKSKNTAYLQLNNLRAEDTAVYYCAREAIYYGNYVFTYWGQGTLVTVSS VL: DIQMTQSPSLLSASLGDRVTITCKSSQSLLNSSNQKNYLAWYQQKPGQSPKLLVYFASTRDSGVPDRFSGSGSGTDFTLTISSLEPEDFATYYCQQHYSTPLTFGGGTKLEIK | nM | 36.4 |
| 60A9-H5L4 (antibody, V domains shown) VH: EVQLVESGGGLVQPGQSLKLSCKASGYAFSSYWMNWVKQRPGKGLEWIGQIYPGDGDTYYSGKFKGRATLSADKSKNTAYLQLNNLRAEDTAVYYCAREAIYYGNYVFTYWGQGTLVTVSS VL: DIVMTQSPSLLSASLGDRVTISCKSSQSLLNSSNQKNYLAWYQQKPGQSPKLLVYFASTRDSGVPDRFSGSGSGTDFTLTISSLEPEDFATYFCQQHYSTPLTFGAGTKLEIK | nM | 30.1 |

Values from patent US20200399389A1
